system.under.test: T1, 4H2697-bA
T1 chain: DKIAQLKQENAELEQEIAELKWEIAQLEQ
test.description: two-hybrid library CCNG1;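 note: natural log of median RNA to DNA barcode read ratio; higher means stronger binding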
Rule: interaction score below -0.09 gives label 1, anything at or above gives label 0.

binder	class.label
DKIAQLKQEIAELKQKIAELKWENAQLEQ [4H2667-bA]	label 0

Request: Regarding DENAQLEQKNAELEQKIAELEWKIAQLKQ [4H1446-bA] , kindly confirm whether its interaction score is beneath -0.09.
Response: label 1
